biological target: Nuclear receptor subfamily 1 group D member 1 (Homo sapiens) (UniProt P20393); assay: modulators of Rev-erb alpha DNA binding, dose response, biochemical, FITC-DNA, fluorescence polarization (AID 1259321)
Sequence (P20393 whole entry, looked up): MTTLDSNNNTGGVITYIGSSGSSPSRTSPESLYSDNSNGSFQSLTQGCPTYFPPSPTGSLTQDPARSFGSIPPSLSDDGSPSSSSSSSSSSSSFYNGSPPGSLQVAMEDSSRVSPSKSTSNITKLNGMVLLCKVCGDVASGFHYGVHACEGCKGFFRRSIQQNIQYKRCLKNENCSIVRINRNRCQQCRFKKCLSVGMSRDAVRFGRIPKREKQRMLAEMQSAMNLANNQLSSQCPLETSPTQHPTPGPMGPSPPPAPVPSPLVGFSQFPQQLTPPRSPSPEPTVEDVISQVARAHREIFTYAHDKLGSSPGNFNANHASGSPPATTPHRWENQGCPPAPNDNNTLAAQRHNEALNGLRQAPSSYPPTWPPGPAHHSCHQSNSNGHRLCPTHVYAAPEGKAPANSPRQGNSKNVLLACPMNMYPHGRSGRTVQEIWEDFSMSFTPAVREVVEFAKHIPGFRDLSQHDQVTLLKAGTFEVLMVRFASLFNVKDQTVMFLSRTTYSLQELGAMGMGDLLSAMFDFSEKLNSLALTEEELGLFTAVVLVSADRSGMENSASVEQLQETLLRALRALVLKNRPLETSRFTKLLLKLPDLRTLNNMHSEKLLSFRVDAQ
Activity calls are given as the source filed them.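 Rule for the calls: active = half-maximal concentration for changing protein binding to DNA, from the fitted dose curve, below 10 micromolar; inactive = the rest.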
Parameter call: string, one of yes for active, no for inactive

Take a look at these entries with their results.
# molecule, assigned-category
records = [
    ("COc1ccc(-c2cc(-c3ccccc3)nc(SCC(=O)Nc3nccs3)c2C#N)cc1", "no"),
    ("N#CC1=C(SCC(N)=O)NC2=C(C(=O)c3ccccc32)C1c1ccc(Cl)cc1 (configuration not stated)", "yes"),
    ("CCc1nnc(NS(=O)(=O)c2ccc(Nc3ccc([N+](=O)[O-])c4nonc34)cc2)s1", "yes"),
]

Okay, next one:
Enquiry: State the result this test recorded for "Cc1cc(C)cc(OCc2nc3ncc(Br)cc3[nH]2)c1" .
Return: yes
